test: Drug concentration in mouse plasma at 2 mg/kg,sc measured after 5 mins by ICP-MS analysis; type: ADME, organism-based
REPORTED_PROPERTY: concentration at 5 min
Answer format reminder: number followed by unit.

Inquiry: Name the reported concentration at 5 min value associated with the molecule CN(C)C(CNC(=O)NCc1cccc(Cl)c1)c1cccc(F)c1 (stereo unspecified)
Reply text: 673 ng/mL

----------
experiment: Drug concentration in mouse intestine at 2 mg/kg,sc measured after 60 mins by ICP-MS analysis; assay type: ADME, organism-based; conditions: read-out: Ct
REPORTED_PROPERTY: concentration at 1 h (ng/g)
Numbers only, in ng/g.

Inquiry: Name the reported concentration at 1 h value associated with the compound CN(C)C(CNC(=O)NCc1cccc(Cl)c1)c1cccc(F)c1 (stereo unspecified)
Reply text: 454

Reference source: ChEMBL document CHEMBL5620432
